Value source: PubChem BioAssay (NCI)

- Method Summary: NCI Yeast Anticancer Drug Screen. Data for the mlh1 rad18 strain (AID 175)
- Condition Details: S. cerevisiae mlh1 rad18 strain growth inhibition; at 50.0 µM (retest, dose inferred, filed as 5.0); hits give high values
The panel holds about 79,000 compounds, 15% with a hit somewhere; the sample as a whole holds those more often.
Property: growth inhibition (%)
Numeric answer only, unit % assumed.

### Prompt Which growth inhibition value belongs to Cc1ccc([C@H]2N[C@@H]2c2ccccn2)cc1 ?
### Response -10

### Prompt Need growth inhibition of CC[C@@]1(O)C(=O)OCc2c1cc1n(c2=O)Cc2cc3ccccc3nc2-1 , thanks.
### Response 93

### Prompt Give the measured growth inhibition of [Cl][Hg][Cl].c1ccc(CSc2ccccc2)cc1 .
### Response 99

### Prompt Form field: reported growth inhibition of COC(COC(=O)N1CCN(C=O)CC1)C1=C(N2CC2)C(=O)C(C)=C(N2CC2)C1=O (centres undefined)
### Response 74

### Prompt Suppose we examine the compound CC(=O)OCC1OC([S-])C(OC(C)=O)C(OC(C)=O)C1OC(C)=O.CC[PH+](CC)CC.CC[PH+](CC)CC.[Au].[Au] (centres undefined) ; what growth inhibition value has been reported?
### Response 98

Others:
### Prompt Sample CC[C@](C)(O)C(=O)O[C@H]1C(=O)O[C@@H]2C[C@H]3C(C)=CC(=O)[C@@H](O)[C@]3(C)[C@H]3[C@@]4(O)OC[C@]32[C@@H]1[C@@H](C)[C@H]4O — what was its growth inhibition?
### Response 94

### Prompt Can you share its growth inhibition? I mean this compound: C[n+]1c(/C=C/c2ccc(O)c(O)c2)[se]c2ccccc21
### Response 80

### Prompt Which measured growth inhibition value corresponds to O=[N+]([O-])c1c(Cl)sc(Cl)c1[N+](=O)[O-] ?
### Response 99

### Prompt growth inhibition for COc1ccccc1/C=C(/C)[N+](=O)[O-] ?
### Response 99
